For each entry below, report its Specific activity value.
Assay: Photometric activity determination of 7β-HSDH and mutants (decrease in absorbance at 340 nm, DHCA reduction with NADPH)
Format: biochemical
Conditions: Table 4, variants modified at position 64; 10 mM DHCA, NADPH, KPi pH 8.0

Query :: GET /values?readout=Specific activity&item= 7β-HSDH [R64Y]: 7β-HSDH mutant, R in position 64 replaced by Y (protein, UniProt A4ECA9 1-263, looked up, variant R64Y) 7beta-hydroxysteroid …: MNLREKYGEWGLILGATEGVGKAFCEKIAAGGMNVVMVGRREEKLNVLAGEIRETYGVETKVVYADFSQPGAAETVFAATEGLDMGFMSYVACLHSFGKIQDTPWEKHEAMINVNVVTFLKCFHHYMRIFAAQDRGAVINVSSMTGISSSPWNGQYGAGKAFILKMTEAVACECEGTGVDVEVITLGTTLTPSLLSNLPGGPQGEAVMKIALTPEECVDEAFEKLGKELSVIAGQRNKDSVHDWKANHTEDEYIRYMGSFYRD
Result :: 9.7 U/mg

Query :: Also check 7β-HSDH [R64T]: 7β-HSDH mutant, R in position 64 replaced by T (protein, UniProt A4ECA9 1-263, looked up, variant R64T) 7beta-hydroxysteroid …: MNLREKYGEWGLILGATEGVGKAFCEKIAAGGMNVVMVGRREEKLNVLAGEIRETYGVETKVVTADFSQPGAAETVFAATEGLDMGFMSYVACLHSFGKIQDTPWEKHEAMINVNVVTFLKCFHHYMRIFAAQDRGAVINVSSMTGISSSPWNGQYGAGKAFILKMTEAVACECEGTGVDVEVITLGTTLTPSLLSNLPGGPQGEAVMKIALTPEECVDEAFEKLGKELSVIAGQRNKDSVHDWKANHTEDEYIRYMGSFYRD
Result :: 27.4 U/mg

Query :: Also check 7β-HSDH [R64W]: 7β-HSDH mutant, R in position 64 replaced by W (protein, UniProt A4ECA9 1-263, looked up, variant R64W) 7beta-hydroxysteroid …: MNLREKYGEWGLILGATEGVGKAFCEKIAAGGMNVVMVGRREEKLNVLAGEIRETYGVETKVVWADFSQPGAAETVFAATEGLDMGFMSYVACLHSFGKIQDTPWEKHEAMINVNVVTFLKCFHHYMRIFAAQDRGAVINVSSMTGISSSPWNGQYGAGKAFILKMTEAVACECEGTGVDVEVITLGTTLTPSLLSNLPGGPQGEAVMKIALTPEECVDEAFEKLGKELSVIAGQRNKDSVHDWKANHTEDEYIRYMGSFYRD
Result :: 10.1 U/mg

Query :: Also check 7β-HSDH [R64S]: 7β-HSDH mutant, R in position 64 replaced by S (protein, UniProt A4ECA9 1-263, looked up, variant R64S) 7beta-hydroxysteroid …: MNLREKYGEWGLILGATEGVGKAFCEKIAAGGMNVVMVGRREEKLNVLAGEIRETYGVETKVVSADFSQPGAAETVFAATEGLDMGFMSYVACLHSFGKIQDTPWEKHEAMINVNVVTFLKCFHHYMRIFAAQDRGAVINVSSMTGISSSPWNGQYGAGKAFILKMTEAVACECEGTGVDVEVITLGTTLTPSLLSNLPGGPQGEAVMKIALTPEECVDEAFEKLGKELSVIAGQRNKDSVHDWKANHTEDEYIRYMGSFYRD
Result :: 20.1 U/mg
